Property: IC50; scope: individual compounds
target: PI3K α (p110α/p85α) (Homo sapiens, UniProt P42336); construct: purchased Upstate / Millipore Corporation; assay: PI 3-Kinase (human) HTRF assay, PI3K α; assay type: biochemical; settings: read-out: PI3K α IC50
Sequence (P42336 whole entry): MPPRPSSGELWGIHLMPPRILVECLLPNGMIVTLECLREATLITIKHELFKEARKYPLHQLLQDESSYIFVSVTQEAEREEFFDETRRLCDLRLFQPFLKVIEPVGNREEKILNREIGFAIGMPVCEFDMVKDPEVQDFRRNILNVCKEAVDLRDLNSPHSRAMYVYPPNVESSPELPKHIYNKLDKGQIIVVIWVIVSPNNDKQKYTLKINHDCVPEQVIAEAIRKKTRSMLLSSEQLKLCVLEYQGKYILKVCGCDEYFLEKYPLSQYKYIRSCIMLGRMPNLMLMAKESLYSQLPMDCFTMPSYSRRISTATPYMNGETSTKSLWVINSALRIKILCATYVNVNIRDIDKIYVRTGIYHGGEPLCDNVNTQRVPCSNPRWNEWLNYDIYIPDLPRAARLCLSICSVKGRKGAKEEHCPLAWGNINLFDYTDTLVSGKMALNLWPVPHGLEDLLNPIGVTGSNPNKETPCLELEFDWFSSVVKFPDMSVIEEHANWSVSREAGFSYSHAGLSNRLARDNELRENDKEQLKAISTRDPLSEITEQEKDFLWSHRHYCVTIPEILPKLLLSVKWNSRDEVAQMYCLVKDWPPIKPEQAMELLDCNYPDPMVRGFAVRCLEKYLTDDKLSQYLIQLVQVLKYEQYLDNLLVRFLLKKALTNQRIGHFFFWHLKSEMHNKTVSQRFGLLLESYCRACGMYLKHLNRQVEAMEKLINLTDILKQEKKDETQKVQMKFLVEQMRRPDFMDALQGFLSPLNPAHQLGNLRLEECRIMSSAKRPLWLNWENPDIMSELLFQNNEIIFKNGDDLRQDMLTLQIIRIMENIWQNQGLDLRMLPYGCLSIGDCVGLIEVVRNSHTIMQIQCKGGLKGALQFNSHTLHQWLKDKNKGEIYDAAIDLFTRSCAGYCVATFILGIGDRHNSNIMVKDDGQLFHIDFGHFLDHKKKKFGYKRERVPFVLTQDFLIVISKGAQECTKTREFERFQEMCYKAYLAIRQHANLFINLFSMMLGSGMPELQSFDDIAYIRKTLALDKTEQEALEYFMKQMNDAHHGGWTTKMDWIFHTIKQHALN
Sequence (P27986 whole entry partner): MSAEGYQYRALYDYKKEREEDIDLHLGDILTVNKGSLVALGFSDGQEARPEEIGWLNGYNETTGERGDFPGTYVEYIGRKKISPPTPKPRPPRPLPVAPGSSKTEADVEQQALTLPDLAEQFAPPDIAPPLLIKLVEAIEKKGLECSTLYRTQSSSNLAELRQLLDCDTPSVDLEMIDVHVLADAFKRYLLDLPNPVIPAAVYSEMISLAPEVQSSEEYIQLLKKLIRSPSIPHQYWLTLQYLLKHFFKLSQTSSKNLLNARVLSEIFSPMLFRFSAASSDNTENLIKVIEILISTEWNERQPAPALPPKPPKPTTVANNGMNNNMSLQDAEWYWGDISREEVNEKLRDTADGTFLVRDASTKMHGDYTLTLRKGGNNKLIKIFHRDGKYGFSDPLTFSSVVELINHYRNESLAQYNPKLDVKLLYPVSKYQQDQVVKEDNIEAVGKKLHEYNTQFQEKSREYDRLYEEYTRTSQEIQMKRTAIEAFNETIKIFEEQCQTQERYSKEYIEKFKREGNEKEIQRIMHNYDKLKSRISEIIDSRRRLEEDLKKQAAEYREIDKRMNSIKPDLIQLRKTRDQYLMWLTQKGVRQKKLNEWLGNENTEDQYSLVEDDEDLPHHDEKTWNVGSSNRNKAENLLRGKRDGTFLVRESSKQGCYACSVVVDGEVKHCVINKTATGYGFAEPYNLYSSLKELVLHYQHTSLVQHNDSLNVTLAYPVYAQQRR
result type: IC50

> print(dat)
                                    compound                              study.system      result
 1  O=C(c1cnc2ccc(-c3cnc(Cl)c4[nH]ncc34)cn12)N1CCOCC1  PI3K α (p110α/p85α) (Homo sapiens, UniProt P42336)   < 1000 nM
 2  Nc1nc2cc(-c3ccc4ncc(N5CC(N6CCC(O)CC6)C5)nc4c3)ccc2o1  PI3K α (p110α/p85α) (Homo sapiens, UniProt P42336)   < 1000 nM
 3  Nc1nc2cc(-c3ccc4ncc(C(=O)N5CC[C@H](F)C5)n4c3)ccc2o1  PI3K α (p110α/p85α) (Homo sapiens, UniProt P42336)    < 100 nM
 4  Nc1nc2cc(-c3ccc4ncc(-c5cccnc5)n4c3)ccc2o1  PI3K α (p110α/p85α) (Homo sapiens, UniProt P42336)    < 100 nM
 5  Nc1nc2cc(-c3ccc4ncc(NCCCN5CCOCC5)nc4c3)ccc2o1  PI3K α (p110α/p85α) (Homo sapiens, UniProt P42336)    < 100 nM
 6  Nc1nc2cc(-c3ccc4ncc(C(=O)N5CCOCC5)n4c3)cc(Cl)c2o1  PI3K α (p110α/p85α) (Homo sapiens, UniProt P42336)    < 100 nM
 7  Nc1nc2cc(-c3ccc4ncn(C5CCOCC5)c4c3)ccc2o1  PI3K α (p110α/p85α) (Homo sapiens, UniProt P42336)  < 10000 nM
 8  CN1CCN(n2cnc3ccc(-c4ccc5oc(N)nc5c4)cc3c2=O)CC1 [Compound 446]  PI3K α (p110α/p85α) (Homo sapiens, UniProt P42336)   < 1000 nM
 9  CN1CCC(NC(=O)c2cnc3ccc(-c4ccc5oc(N)nc5c4)cn23)CC1  PI3K α (p110α/p85α) (Homo sapiens, UniProt P42336)    < 100 nM
10  CC(C)(C#N)c1ccc(Nc2ncnc3ccc(-c4ccc5oc(N)nc5c4)cc23)cc1  PI3K α (p110α/p85α) (Homo sapiens, UniProt P42336)    < 100 nM
11  Nc1nc2ccc(-c3ccc4ncc(C(=O)N5CCOCC5)n4c3)cc2[nH]1  PI3K α (p110α/p85α) (Homo sapiens, UniProt P42336)   < 1000 nM
12  CN1CCN(C2CN(c3cnc4ccc(-c5ccc6oc(N)nc6c5)cc4n3)C2)CC1=O  PI3K α (p110α/p85α) (Homo sapiens, UniProt P42336)    < 100 nM
13  C[C@@H]1CN(C2CN(C(=O)c3cnc4ccc(-c5ccc6oc(N)nc6c5)cn34)C2)CCN1  PI3K α (p110α/p85α) (Homo sapiens, UniProt P42336)    < 100 nM
14  Nc1nc2ccc(-c3ccc4ncn(C5CCOCC5)c(=O)c4c3)cc2o1  PI3K α (p110α/p85α) (Homo sapiens, UniProt P42336)  < 10000 nM
15  Nc1nc2cc(-c3ccn4ncc(C(=O)N5CCC(N6CCOCC6)CC5)c4c3)ccc2o1  PI3K α (p110α/p85α) (Homo sapiens, UniProt P42336)   < 1000 nM
16  Nc1nc2cc(-c3ccc4ncn(C5CCC5)c(=O)c4c3)ccc2o1  PI3K α (p110α/p85α) (Homo sapiens, UniProt P42336)    < 100 nM
17  Cc1cc(-c2ccc3oc(N)nc3c2)cn2c(C(=O)N3CCOCC3)cnc12  PI3K α (p110α/p85α) (Homo sapiens, UniProt P42336)   < 1000 nM

Value source: patent US20150087627A1
